The measured values listed here are drawn from patent US20180244611A1.

# assay system: F508delCFTR (Homo sapiens, UniProt P13569, DEL508-508)
# Construct: expressed in transfected cells; host or cells: CFBE41o- human lung-derived epithelial cells (CFBE41o-F508delCFTR-HRP), doxycycline-inducible
# Sequence (P13569 with tags, fused parts or gaps DEL508-508): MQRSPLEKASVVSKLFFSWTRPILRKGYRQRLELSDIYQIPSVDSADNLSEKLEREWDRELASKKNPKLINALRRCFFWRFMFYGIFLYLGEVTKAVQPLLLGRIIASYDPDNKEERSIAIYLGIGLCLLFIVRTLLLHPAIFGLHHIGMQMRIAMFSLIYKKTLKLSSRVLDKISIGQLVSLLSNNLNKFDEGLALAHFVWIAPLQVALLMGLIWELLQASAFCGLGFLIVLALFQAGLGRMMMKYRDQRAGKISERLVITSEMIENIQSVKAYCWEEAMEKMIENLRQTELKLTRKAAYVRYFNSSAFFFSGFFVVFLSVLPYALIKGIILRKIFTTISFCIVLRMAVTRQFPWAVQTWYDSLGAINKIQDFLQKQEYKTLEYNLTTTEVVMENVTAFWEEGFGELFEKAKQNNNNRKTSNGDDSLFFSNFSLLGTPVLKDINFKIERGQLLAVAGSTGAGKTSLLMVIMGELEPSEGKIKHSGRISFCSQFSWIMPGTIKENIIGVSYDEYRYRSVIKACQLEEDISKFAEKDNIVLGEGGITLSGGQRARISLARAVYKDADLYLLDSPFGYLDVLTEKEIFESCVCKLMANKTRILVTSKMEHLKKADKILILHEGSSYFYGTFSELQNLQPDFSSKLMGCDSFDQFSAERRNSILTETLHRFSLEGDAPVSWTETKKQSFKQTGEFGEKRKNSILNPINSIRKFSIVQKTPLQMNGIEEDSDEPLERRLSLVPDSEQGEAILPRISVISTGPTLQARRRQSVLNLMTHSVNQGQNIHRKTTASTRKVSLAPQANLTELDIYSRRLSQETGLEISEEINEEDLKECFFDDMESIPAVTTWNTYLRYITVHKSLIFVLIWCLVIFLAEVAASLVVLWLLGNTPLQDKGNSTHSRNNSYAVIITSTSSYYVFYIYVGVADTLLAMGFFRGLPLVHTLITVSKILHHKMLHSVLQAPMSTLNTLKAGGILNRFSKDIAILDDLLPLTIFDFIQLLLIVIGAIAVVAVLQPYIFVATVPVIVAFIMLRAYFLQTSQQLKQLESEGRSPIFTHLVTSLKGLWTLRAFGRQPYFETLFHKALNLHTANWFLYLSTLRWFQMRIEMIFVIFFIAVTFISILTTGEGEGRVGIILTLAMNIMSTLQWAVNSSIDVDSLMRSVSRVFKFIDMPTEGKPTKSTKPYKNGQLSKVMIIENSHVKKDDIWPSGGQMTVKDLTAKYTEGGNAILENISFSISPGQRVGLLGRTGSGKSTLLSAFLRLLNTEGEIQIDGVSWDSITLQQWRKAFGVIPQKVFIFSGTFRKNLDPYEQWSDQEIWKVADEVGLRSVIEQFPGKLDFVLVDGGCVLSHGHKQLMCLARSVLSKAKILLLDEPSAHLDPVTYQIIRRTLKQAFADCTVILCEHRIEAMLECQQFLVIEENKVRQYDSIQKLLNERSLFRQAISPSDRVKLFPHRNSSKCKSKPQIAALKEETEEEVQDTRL
# method summary: Cell Surface Expression-Horse Radish Peroxidase (CSE-HRP) assay, test compound with co-corrector
# Assay type: cell-based
# measurement setup: with 2 μM co-corrector
pEC50: −log10 of the molar value.
Recorded pEC50 by entry

# count of solved cases: 5
compound	assay system	value reported
COc1cccc2c1CCC2C(=O)NS(=O)(=O)c1cccc(Cl)c1 (centres unmarked)	F508delCFTR (Homo sapiens, UniProt P13569, DEL508-508)	5.00 to 5.52
COc1cccc2c1CCC2C(=O)NS(=O)(=O)c1ccc(Cl)c([N+](=O)[O-])c1 (centres unmarked)	F508delCFTR (Homo sapiens, UniProt P13569, DEL508-508)	≤ 5.00
COc1cccc(CC2(C(=O)NS(=O)(=O)c3cccc4ccccc34)CCc3c(Cl)cccc32)n1 (centres unmarked)	F508delCFTR (Homo sapiens, UniProt P13569, DEL508-508)	5.00 to 5.52
COc1ccc(C(F)(F)F)c2c1[C@H](C(=O)NS(=O)(=O)c1cccc3ccccc13)CC2	F508delCFTR (Homo sapiens, UniProt P13569, DEL508-508)	> 5.52
COc1ccc(C2CCC2)c2c1[C@H](C(=O)NS(=O)(=O)c1cccc3c1CCCN3)C2	F508delCFTR (Homo sapiens, UniProt P13569, DEL508-508)	> 5.52

[Q] What does the data say about its pEC50? Entry: COc1ccc(C2CCC2)c2c1C(C(=O)NS(=O)(=O)c1cccn3nccc13)C2 (centres unmarked)
[A] > 5.52

[Q] I would be grateful if you could share the reported pEC50 for O=C(NS(=O)(=O)c1cccc2ccccc12)C1(Cc2ccc(Cl)nc2)CCc2c(Cl)cccc21 (centres unmarked) .
[A] > 5.52

[Q] Look at this compound and give its reported pEC50. COc1cccc2c1CCC2C(=O)NS(=O)(=O)c1c(C)nn(C)c1C (centres unmarked)
[A] ≤ 5.00

====

Attribute: EC50
# assay system: F508delCFTR (Homo sapiens, UniProt P13569, DEL508-508)
# Construct: expressed in transfected cells; host or cells: CFBE41o- human lung-derived epithelial cells (CFBE41o-F508delCFTR-HRP), doxycycline-inducible
# method summary: Cell Surface Expression-Horse Radish Peroxidase (CSE-HRP) assay, test compound without co-corrector
# Type: cell-based
# measurement setup: test compound without co-corrector

Consider the reported EC50 for these molecules:
molecule	value reported
COc1cccc2c1CCC2C(=O)NS(=O)(=O)c1ccc(NC(=O)CC(C)=O)cc1 (centres unmarked)	≥ 10 µM
COc1cccc2c1CCC2C(=O)NS(=O)(=O)c1cccc2ccccc12 (centres unmarked)	3 to 10 µM
O=C(NS(=O)(=O)c1cccc2ccccc12)C1CCc2c(Br)ccc(OCC3CC3)c21 (centres unmarked)	< 3 µM
CCC1(C(=O)NS(=O)(=O)c2ccccc2OC)CCc2c(Cl)cccc21 (centres unmarked)	≥ 10 µM
COc1ccc(-c2cccc(OC(F)(F)F)c2)c2c1C(C(=O)NS(=O)(=O)c1cccc3ccccc13)CCC2 (centres unmarked)	3 to 10 µM
COc1ccc(C2CCC2)c2c1C(C(=O)NS(=O)(=O)c1cccc3ccccc13)CCC2 (centres unmarked)	< 3 µM

[Q] Look up EC50 with F508delCFTR (Homo sapiens, UniProt P13569, DEL508-508) for this molecule: COc1cccc2c1CCC2C(=O)NS(=O)(=O)c1ccc(C#N)cc1 (centres unmarked)
[A] ≥ 10 µM

[Q] Notebook: pull reported EC50 for F508delCFTR (Homo sapiens, UniProt P13569, DEL508-508), entry COc1cccc(CC2(C(=O)NS(=O)(=O)c3cccc4ccccc34)CCc3c(Cl)cccc32)n1 (centres unmarked)
[A] 3 to 10 µM

[Q] Item CCC1(C(=O)NS(=O)(=O)c2cccc(N3CCCCC3)c2C)CCc2c(Cl)cccc21 (centres unmarked) with F508delCFTR (Homo sapiens, UniProt P13569, DEL508-508) - EC50?
[A] 3 to 10 µM

[Q] Find EC50 (F508delCFTR (Homo sapiens, UniProt P13569, DEL508-508)) for the entry COc1ccccc1S(=O)(=O)NC(=O)C1CCc2c(Cl)cccc21 (centres unmarked)
[A] ≥ 10 µM

[Q] # returns recorded EC50 (system: F508delCFTR (Homo sapiens, UniProt P13569, DEL508-508)) for COc1ncc(C2CCC2)c2c1C(C(=O)NS(=O)(=O)c1cccc3ccccc13)CC2 (centres unmarked)
[A] 3 to 10 µM

====

// values below are reported Emax
# assay system: F508delCFTR (Homo sapiens, UniProt P13569, DEL508-508)
# Construct: expressed in transfected cells; host or cells: CFBE41o- human lung-derived epithelial cells (CFBE41o-F508delCFTR-HRP), doxycycline-inducible
# method summary: Cell Surface Expression-Horse Radish Peroxidase (CSE-HRP) assay, test compound without co-corrector;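 on Emax: percent of on-plate 2 µM positive control corrector response over DMSO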
# Type: cell-based
# measurement setup: maximum at any tested concentration, normalized to positive control, without co-corrector

Previously resolved entries follow.
molecule	value reported
COc1ccc(/C=C/c2ccccc2)c2c1CCCC2C(=O)NS(=O)(=O)c1cccc2ccccc12 (centres unmarked)	≥ 150%
O=C(NS(=O)(=O)c1cccc2ccccc12)C1(Cc2ccccc2)CCc2c(Cl)cccc21 (centres unmarked)	≥ 150%
COc1ccc(C2CCC2)c2c1[C@@H](C(=O)NS(=O)(=O)c1cccc3ncccc13)C2 (single isomer, unassigned)	≥ 150%
CCC1(C(=O)NS(=O)(=O)c2cccc(C3CCC3)c2C)CCc2c(Cl)cccc21 (centres unmarked)	< 50%
COc1ccc(OC)c2c1CCCC2C(=O)NS(=O)(=O)c1cccc2ccccc12 (centres unmarked)	≥ 150%
O=C(NS(=O)(=O)c1cccc2ccccc12)C1(CN2CCCC2)CCc2c(Cl)cccc21 (centres unmarked)	< 50%
COc1cccc2c1CCC2C(=O)NS(=O)(=O)c1cc([N+](=O)[O-])ccc1Cl (centres unmarked)	< 50%

Could you now consider this next molecule?
[Q] Data request, read-out Emax, for COc1cccc2c1CCC2C(=O)NS(=O)(=O)c1ccccc1C(F)(F)F (centres unmarked)
[A] < 50%

====

Catalogue of compounds with associated pEC50
# assay system: F508delCFTR (Homo sapiens, UniProt P13569, DEL508-508)
# Construct: expressed in transfected cells; host or cells: CFBE41o- human lung-derived epithelial cells (CFBE41o-F508delCFTR-HRP), doxycycline-inducible
# method summary: Cell Surface Expression-Horse Radish Peroxidase (CSE-HRP) assay, test compound without co-corrector
# Type: cell-based
# measurement setup: test compound without co-corrector
pEC50: −log10 of the molar value.

compound	pEC50
COCCOc1ccc(Br)c2c1CCCC2C(=O)NS(=O)(=O)c1cccc2ccccc12 (stereo not shown)	> 5.52

[Q] Form: Entry = COc1ccc(C2CCC2)c2c1C(C(=O)NS(=O)(=O)c1cccc3ncccc13)C2 (stereo not shown) | System = F508delCFTR (Homo sapiens, UniProt P13569, DEL508-508) | pEC50 = ____
[A] > 5.52

[Q] Param readout= pEC50; system= F508delCFTR (Homo sapiens, UniProt P13569, DEL508-508); entry= O=C(NS(=O)(=O)c1cccc2ccccc12)C1CCCc2c1ccc1c2OCCO1 (stereo not shown) ; returns value.
[A] 5.00 to 5.52

[Q] Report pEC50 for COc1ccc(Br)c2c1C(C(=O)NS(=O)(=O)c1cccc3ccccc13)CC2 (stereo not shown) tested on F508delCFTR (Homo sapiens, UniProt P13569, DEL508-508).
[A] 5.00 to 5.52

====

# assay system: F508delCFTR (Homo sapiens, UniProt P13569, DEL508-508)
# Construct: expressed in transfected cells; host or cells: CFBE41o- human lung-derived epithelial cells (CFBE41o-F508delCFTR-HRP), doxycycline-inducible
# method summary: Cell Surface Expression-Horse Radish Peroxidase (CSE-HRP) assay, test compound with co-corrector
# Type: cell-based
# measurement setup: with 2 μM co-corrector
readout name: EC50

[Q] So what does the record say about EC50 for COc1ccc(C2CCC2)c2c1[C@H](C(=O)NS(=O)(=O)c1cccc3ncccc13)CC2 [Example I-103] ?
[A] 3 to 10 µM

[Q] What does the record list as EC50 for COc1cc(CC2(C(=O)NS(=O)(=O)c3cccc4ccccc34)CCc3c(Cl)cccc32)ccn1 (centres unmarked) [II-72] ?
[A] < 3 µM

[Q] Would you kindly share the measured EC50 for COc1ccc(Br)c2c1C(C(=O)NS(=O)(=O)c1cccc3nc(C(C)C)ccc13)CC2 (centres unmarked) [II-132] ?
[A] < 3 µM

[Q] Given the molecule CC(C)Oc1ccc(Br)c2c1C(C(=O)NS(=O)(=O)c1cccc3ccccc13)CC2 (centres unmarked) [Example I-54] , what is its reported EC50?
[A] < 3 µM

[Q] EC50 lookup needed for CCC1(C(=O)NS(=O)(=O)c2cccc(C3CCC3)c2C)CCc2c(Cl)cccc21 (centres unmarked) [II-112] , thanks.
[A] < 3 µM

[Q] I am curious: what EC50 value has been reported for COc1cc(-c2cccc3c2CCC3C(=O)NS(=O)(=O)c2ccccc2C)ccn1 (centres unmarked) [II-42] ?
[A] 3 to 10 µM

[Q] Quick one: EC50 for CC1(C(=O)NS(=O)(=O)c2cccc3ccccc23)CCc2ccc(OC(F)(F)F)cc21 (centres unmarked) [II-49] ?
[A] < 3 µM

[Q] Look up EC50: COc1ccc(Cl)c2c1CC[C@@H]2C(=O)NS(=O)(=O)c1cccc2ccccc12 (single isomer, unassigned) [Example I-87]
[A] 3 to 10 µM
